- Target Or System: C-C chemokine receptor type 4 (Homo sapiens)
- Sequence (P51679 whole entry): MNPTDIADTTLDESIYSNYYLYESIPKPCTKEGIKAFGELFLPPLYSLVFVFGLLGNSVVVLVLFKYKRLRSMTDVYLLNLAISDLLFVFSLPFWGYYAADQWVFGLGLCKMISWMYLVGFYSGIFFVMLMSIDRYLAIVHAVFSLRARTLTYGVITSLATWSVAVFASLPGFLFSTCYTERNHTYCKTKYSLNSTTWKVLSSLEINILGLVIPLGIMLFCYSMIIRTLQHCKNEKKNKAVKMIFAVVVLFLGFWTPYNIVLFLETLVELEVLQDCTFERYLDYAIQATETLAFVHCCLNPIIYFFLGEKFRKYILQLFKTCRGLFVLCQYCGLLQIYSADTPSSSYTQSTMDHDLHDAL
- Test Summary: Inhibition of CCL22-stimulated CCR4 in human HTLA cells pre-incubated for 20 mins with Tween-80-treated compound solution measured on day 4 by beta arrestin-recruitment mediated luciferase reporter gene assay
Quantity Name: IC50 (µM)
Answers are plain numbers, in µM.

Request: // fetch C-C chemokine receptor type 4 (Homo sapiens) IC50 for CCC(C)n1ncn(-c2ccc(N3CCN(c4ccc(OCC5COC(Cn6cncn6)(c6ccc(Cl)cc6Cl)O5)cc4)CC3)cc2)c1=O (stereo unspecified)
Result: 12.6

----------
- Target Or System: C-C chemokine receptor type 4 (Homo sapiens, UniProt P51679)
- Test Summary: Inverse agonist activity at CCR4 in human HTLA cells assessed as depression of basal activity incubated for 20 mins by beta arrestin-recruitment mediated luciferase reporter gene assay in absence of CCL22
- Assay type: cell-based
Quantity Name: pIC50
One number for each entry, as −log10 of the molar value.

Request: Please report the recorded pIC50 for `Clc1ccccc1C(c1ccccc1)(c1ccccc1)n1ccnc1` .
Result: 5.80

----------
- Target Or System: C-C chemokine receptor type 4 (Homo sapiens, UniProt P51679)
- Sequence (P51679 whole entry): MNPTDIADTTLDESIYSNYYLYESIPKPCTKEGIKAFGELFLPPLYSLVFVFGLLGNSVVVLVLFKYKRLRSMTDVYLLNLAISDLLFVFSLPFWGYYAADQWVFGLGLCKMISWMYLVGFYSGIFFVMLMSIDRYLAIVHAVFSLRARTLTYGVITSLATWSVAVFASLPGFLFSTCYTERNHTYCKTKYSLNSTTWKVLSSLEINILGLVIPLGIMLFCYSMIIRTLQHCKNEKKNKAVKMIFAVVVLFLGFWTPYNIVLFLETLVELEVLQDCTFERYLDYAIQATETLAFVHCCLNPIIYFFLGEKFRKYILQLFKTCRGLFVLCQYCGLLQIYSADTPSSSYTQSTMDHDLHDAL
- Test Summary: Inhibition of CCL22-stimulated CCR4 in human HTLA cells pre-incubated for 20 mins with centrifuged compound solution measured on day 4 by beta arrestin-recruitment mediated luciferase reporter gene assay
- Assay type: cell-based
Quantity Name: IC50 (µM)
Give bare numbers, in µM.

Request: Please report the recorded IC50 for CCC(C)n1ncn(-c2ccc(N3CCN(c4ccc(OCC5COC(Cn6cncn6)(c6ccc(Cl)cc6Cl)O5)cc4)CC3)cc2)c1=O (stereo unspecified) .
Result: 7.2

----------
- Target Or System: Vasopressin V2 receptor (Homo sapiens)
- Sequence (P30518 whole entry): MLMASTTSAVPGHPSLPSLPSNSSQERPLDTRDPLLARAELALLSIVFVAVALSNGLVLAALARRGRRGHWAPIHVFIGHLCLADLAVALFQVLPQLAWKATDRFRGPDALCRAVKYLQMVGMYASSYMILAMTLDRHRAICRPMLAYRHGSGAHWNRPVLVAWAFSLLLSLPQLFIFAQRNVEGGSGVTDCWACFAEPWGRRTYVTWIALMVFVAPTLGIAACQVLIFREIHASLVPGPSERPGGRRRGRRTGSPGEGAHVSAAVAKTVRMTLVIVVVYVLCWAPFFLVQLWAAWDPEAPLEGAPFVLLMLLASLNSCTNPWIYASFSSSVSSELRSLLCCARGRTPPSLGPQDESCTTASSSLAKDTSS
- Test Summary: Inhibition of vasopressin-stimulated vasopressin V2 receptor in human HTLA cells pre-incubated for 20 mins measured on day 4 by beta arrestin-recruitment mediated luciferase reporter gene assay
- Type: cell-based
Quantity Name: IC50 (nM)
Numbers only, in nM.

Request: Please report the recorded IC50 for CCC(C)n1ncn(-c2ccc(N3CCN(c4ccc(OCC5COC(Cn6cncn6)(c6ccc(Cl)cc6Cl)O5)cc4)CC3)cc2)c1=O (stereo unspecified) .
Result: 794
